For each of the molecules below, state its Solubility.
test: Solubility of cyanine dye in DAA at 20° C.; type: physicochemical; conditions: in diacetone alcohol (DAA) at 20° C.
Report only the number, with the unit mg/mL understood.

// query Which measured Solubility value corresponds to CCCCN1C(=CC=CC2=[N+](C)c3ccc4ccccc4c3C2(C)C)C(C)(C)c2c1ccc1ccccc21 [Chemical Formula 73, reference compound] ?
// result 42

// query Which measured Solubility value corresponds to CCCCN1C(=CC=CC2=[N+](CC)c3ccc4ccccc4c3C2(C)C)C(C)(C)c2c1ccc1ccccc21 [Chemical Formula 20] ?
// result 140

// query Which measured Solubility value corresponds to CCCCN1C(=CC=CC2=[N+](C)c3ccc4ccccc4c3C2(C)C)C(C)(C)c2c1ccc1ccccc21 [Chemical Formula 14] ?
// result 73

// query Which measured Solubility value corresponds to CCCCN1C(=CC=CC2=[N+](CCCC)c3ccc4ccccc4c3C2(C)C)C(C)(C)c2c1ccc1ccccc21 [Chemical Formula 76, reference compound] ?
// result 17

// query Which measured Solubility value corresponds to CCCCN1/C(=C\C=C\C2=[N+](CCCC)c3ccc4ccccc4c3C2(C)C)C(C)(C)c2c1ccc1ccccc21 ?
// result 6.4

// query Which measured Solubility value corresponds to CCCCN1C(=CC=CC2=[N+](CC)c3ccc4ccccc4c3C2(C)C)C(C)(C)c2c1ccc1ccccc21 [Chemical Formula 19] ?
// result 23

// query Which measured Solubility value corresponds to CCCCN1C(=CC=CC2=[N+](C)c3ccc4ccccc4c3C2(C)C)C(C)(C)c2c1ccc1ccccc21 [Chemical Formula 13] ?
// result 143

// query Which measured Solubility value corresponds to CCCCN1C(=CC=CC2=[N+](CC)c3ccc4ccccc4c3C2(C)C)C(C)(C)c2c1ccc1ccccc21 [Chemical Formula 74, reference compound] ?
// result 22

// query Which measured Solubility value corresponds to CCCCN1C(=CC=CC2=[N+](CCCC)c3ccc4ccccc4c3C2(C)C)C(C)(C)c2c1ccc1ccccc21 [Chemical Formula 33] ?
// result 61

----------
assay: Decomposition point of cyanine dye by DTA/TGA; assay type: physicochemical; details: temperature at which specimen begins to lose weight on TGA; heating rate 10° C./min
For each of the compounds below, state its Decomposition point (° C.).
Report only the number, with the unit °C understood.

// query Which measured Decomposition point (° C.) value corresponds to CCCC[N+]1=C(C=CC=C2N(C)c3c(ccc4ccccc34)C2(C)C)C(C)(C)c2c1ccc1ccccc21 ?
// result 261.3

// query Which measured Decomposition point (° C.) value corresponds to CCCCN1C(=CC=CC2=[N+](CC)c3ccc4ccccc4c3C2(C)C)C(C)(C)c2c1ccc1ccccc21 [Chemical Formula 19] ?
// result 281.6

// query Which measured Decomposition point (° C.) value corresponds to CN1C(=CC=CC2=[N+](C)c3ccc4ccccc4c3C2(C)C)C(C)(C)c2ccc3ccccc3c21 ?
// result 304.7

// query Which measured Decomposition point (° C.) value corresponds to CCCN1C(=CC=CC2=[N+](CC)c3ccc4ccccc4c3C2(C)C)C(C)(C)c2c1ccc1ccccc21 ?
// result 301.9

// query Which measured Decomposition point (° C.) value corresponds to CN1C(=CC=CC2=[N+](C)c3ccc4ccccc4c3C2(C)C)C(C)(C)c2c1ccc1ccccc21 ?
// result 314.5

// query Which measured Decomposition point (° C.) value corresponds to CCCCN1/C(=C\C=C\C2=[N+](CCCC)c3ccc4ccccc4c3C2(C)C)C(C)(C)c2c1ccc1ccccc21 ?
// result 280.1

// query Which measured Decomposition point (° C.) value corresponds to CCCCN1C(=CC=CC2=[N+](C)c3ccc4ccccc4c3C2(C)C)C(C)(C)c2c1ccc1ccccc21 [Chemical Formula 14] ?
// result 279.8

// query Which measured Decomposition point (° C.) value corresponds to CCCCN1C(=CC=CC2=[N+](CCC)c3ccc4ccccc4c3C2(C)C)C(C)(C)c2c1ccc1ccccc21 [Chemical Formula 75, reference compound] ?
// result 269.0

Origin of values: patent US6743568B2
